protocol.notes: Gamma irradiation of compound (I) in different containers, amounts of (I) and breakdown products by HPLC
Type: physicochemical
study.conditions: Plastic container, gamma dose 15 kGY
attribute.measured: amount of breakdown products (II) [sum of (II-a) and (II-b)] (%)

{"compound": "CCCCCCCCCCCCCCCC(=O)OC1CCCn2c1nc(C)c(CCN1CCC(c3noc4cc(F)ccc34)CC1)c2=O (stereo not shown)", "endpoint.value": 0.03}

* * *

protocol.notes: Gamma irradiation of compound (I) in different containers, amounts of (I) and breakdown products by HPLC
Format: physicochemical
study.conditions: Glass/metal container, gamma dose 20 kGY
Excerpt: During pharmaceutical development, aseptic formulations of paliperidone palmitate (I) were initially obtained by gamma irradiation. Compound (I) was irradiated with various doses of gamma rays in different containers.

{"molecule": "CCCCCCCCCCCCCCCC(=O)OC1CCCn2c1nc(C)c(CCN1CCC(c3noc4cc(F)ccc34)CC1)c2=O (stereo not shown) [(I)]", "amount of breakdown product (III)": "0.29%"}

* * *

protocol.notes: Gamma irradiation of compound (I) in different containers, amounts of (I) and breakdown products by HPLC
Format: physicochemical
study.conditions: Glass/metal container, gamma dose 20 kGY

{"compound": "CCCCCCCCCCCCCCCC(=O)OC1CCCn2c1nc(C)c(CCN1CCC(c3noc4cc(F)ccc34)CC1)c2=O (stereo not shown)", "amount of (I)": "98.4%"}

* * *

protocol.notes: Gamma irradiation of compound (I) in different containers, amounts of (I) and breakdown products by HPLC
Format: physicochemical
study.conditions: Plastic container, gamma dose 25 kGY

{"compound": "CCCCCCCCCCCCCCCC(=O)OC1CCCn2c1nc(C)c(CCN1CCC(c3noc4cc(F)ccc34)CC1)c2=O (stereo not shown)", "amount of breakdown product (III) / %": 0.35}

* * *

protocol.notes: Gamma irradiation of compound (I) in different containers, amounts of (I) and breakdown products by HPLC
Format: physicochemical
study.conditions: Glass/metal container, gamma dose 5 kGY

{"molecule": "CCCCCCCCCCCCCCCC(=O)OC1CCCn2c1nc(C)c(CCN1CCC(c3noc4cc(F)ccc34)CC1)c2=O (stereo not shown) [(I)]", "units.text": "%", "amount of (I)": 98.8}

* * *

protocol.notes: Gamma irradiation of compound (I) in different containers, amounts of (I) and breakdown products by HPLC
Type: physicochemical
study.conditions: Glass container, gamma dose 30 kGY
attribute.measured: amount of breakdown products (II) [sum of (II-a) and (II-b)] (%)

{"molecule": "CCCCCCCCCCCCCCCC(=O)OC1CCCn2c1nc(C)c(CCN1CCC(c3noc4cc(F)ccc34)CC1)c2=O (stereo not shown)", "endpoint.value": 0.24}

* * *

protocol.notes: Gamma irradiation of compound (I) in different containers, amounts of (I) and breakdown products by HPLC
Type: physicochemical
study.conditions: Glass/metal container, gamma dose 25 kGY
attribute.measured: amount of breakdown products (II) [sum of (II-a) and (II-b)]

{"molecule": "CCCCCCCCCCCCCCCC(=O)OC1CCCn2c1nc(C)c(CCN1CCC(c3noc4cc(F)ccc34)CC1)c2=O (stereo not shown) [(I)]", "endpoint.value": "0.05%"}

* * *

protocol.notes: Gamma irradiation of compound (I) in different containers, amounts of (I) and breakdown products by HPLC
Assay type: physicochemical
study.conditions: Glass container, gamma dose 15 kGY
attribute.measured: amount of breakdown products (II) [sum of (II-a) and (II-b)] (%)

{"molecule": "CCCCCCCCCCCCCCCC(=O)OC1CCCn2c1nc(C)c(CCN1CCC(c3noc4cc(F)ccc34)CC1)c2=O (stereo not shown)", "endpoint.value": 0.11}

Data credit: patent US20080214808A1
